assay: soluble on expression in E. coli; label from the status in PepcDB or PDB records
reported.endpoint: soluble on expression in E. coli

MSHSYSVPKKFPTTVVGSYPKIGPASEAIKKRRAGEISEEEFHRIARESIRMVVEDYIWAGVDIISDGEQTREDMVVYFAERLEGYREGDWVRVFDNVYFRKPIVAGRVRWVRPMIIEDWEYARSISAGRPVKFIITGPYTMLEWSFDLHYGDRRELIFDLARAIRREIDEALARGAEYIQVDEPALSTRPFKEEAELLKEALDIIFKGVGAKRIVHICYGELERILPYILDYPVDQFDLEMKNSNFRLLPYLKEYGYDKEIGYGVIDVHSFQVESVGEVKEAIDRLMKMDIVGPEKVYVDPDCGLKRLPRDVARAKLKNMVEAARLAREEWMAGDPLEHHHHHH | not soluble
MTKQLPPGQFETEKWPILHEGDVYQFDEATWNFRLFGDVKEEVSLSYQEVMQLPKTVSTIDMHCVTTWSKFDTTFEGIAFREFLRFVELDPDVKYVKIYGYLNGDRFGYSANLPLEALMGDDALFVYRWKDKHHDWQDISPKHGYPLRFIPPATFYLWKGAKWASGIRFMKEDEPGYWEERGYSMTANPFKEERFAEWVPRIRF | not soluble

---

assay: soluble on expression in E. coli; label from the status in PepcDB or PDB records
reported.endpoint: soluble on expression in E. coli

MGSDKIHHHHHHMRLLFRKAGEFFRDFVSIFKHISDDLEMYLKLDPAAESKLQVFFFYASFQGLMWYRFAHFFYKWKLKVLAYLIYYFVRVVFSMDIHPAARIAPGVVIDHGIGVVIGSTASVGRGTLIYHGVTLGTRKPCSGKRHPDVGENVMIGTGAKILGPIRVGNNAVVGANAVVLEDVPDGAVVVGVPARIVKWRRDFCDDGKTDREHSYSETRFDRLENLLETGKE | not soluble
MGSDKIHHHHHHMQFCSSDEFASKTMIKWPWKVQESAHQTALPWQEALSIPLLTCLTEQEQSKLVTLAERFLQQKRLVPLQGFELDSLRSCRIALLFCLPVLELGLEWLDGFHEVLIYPAPFVVDDEWEDDIGLVHNQRIVQSGQSWQQGPIVLNWLDIQDSFDASGFNLIIHEVAHKLDTRNGDRASGVPFIPLREVAGWEHDLHAAMNNIQEEIELVGENAASIDAYAASDPAECFAVLSEYFFSAPELFAPRFPSLWQRFCQFYQQDPLQRLHHANDTDSFSATNVH | not soluble
NSDALVSIQTSKLPKTAYTATDFIKTAQYKYNHIVSNTVYELDLFQNAVSYADFAVLELELNLANNRDQQIFDSFINPAVTAYEKLGNSLGLFSNLQLDQYVDDTHYLLGYPLLKREKTSY | not soluble

---

experiment: soluble on expression in E. coli; label from the status in PepcDB or PDB records
reported.endpoint: soluble on expression in E. coli

MGSDKIHHHHHHMKKKLKIGISACVMGEPVRFDRGHKKSGFCMEQLAEFAEFKPVCPEMAIGLPVPRPTIRQIVRDNIITVSRPDGSGDVTQALKEFGAKAALNYQELAGFVFCAKSPSCGMERVKVYHHHGKGSESTGVGIFAEQVMKANPLLPCEENGRLNDPIIRENFTTRIFTYQKWLDLKAEGLTRHKLIQFHSAHKYLVMSHHVESYRELGRLLGRADIGLEEQSERYISGLMQALKHKASRRSHTNTLQHLQGYFKRQLDEHKRRELTQEIAAYREGLSPLLVPLTLIKHYLIEFPNEYLLQQAYLNPHPKELRLRYGY | not soluble
MYYHALKLSRLAMLTLAGVAVSASAIAADSAPTSQIGPTAEAYIVSHPDKVGEVVATYLAEHPEFLVAASETLHQRQQIAQQQAYVQLALQYRAELLSSSSPSVGPNEAKAAVVMFFDYQCSWCSKMAPVVENLIKANPDTRFIFKEFPIFSSRWPVSGLAARVGEQVWLTQGGAKYLDWHNALYATGKVEGALTEHDVYTLAQHYLTPTQLAAVKEAQSSGAVHDALLTNQALAQHMDFSGTPAFVVMPQTQDGDVKRVTVIPGSTTQDMLQMAIQKAKG | not soluble

---

test: soluble on expression in E. coli; label from the status in PepcDB or PDB records
reported.endpoint: soluble on expression in E. coli

YSGLHLCESHLCRAVTKRVRRRIREDGLVSDDATVEDPETWVIGLSGGKDSVVLTQILHDTFAEDPRIELVALSIHEGIEGYRDASLEACEELTDDLGIEHVTVSYAEEFGVQMDDVVEDDPEGMAACAYCGVFRRDLLSKYAEELDADKLLTGHNLDDEAETALMNFLEGDISQIAKHFEASLGPFDSSADAPTEQTREAQDHHIPRAKPLRDIPEKEVALYARFEDLPAHITEC | not soluble
MPSENSRPMPSFPRRRESRPWDNGNIQRLSESPRFWIPTFVGMTGCRFVGMTWCRFPYGWIRHSRAGGNLERKI | not soluble

---

assay: soluble on expression in E. coli; label from the status in PepcDB or PDB records
reported.endpoint: soluble on expression in E. coli

Below, 4 sequences whose answers are already recorded.
SLEKHSWYHGPVSRNAAEYLLSSGINGSFLVRESESSPGQRSISLRYEGRVYHYRINTASDGKLYVSSESRFNTLAELVHHHSTVADGLITTLHYPAPKRNKPTVYGVSPNY | soluble
MSQLLQDYLNWENYILRRVDFPTSYVVEGEVVRIEAMPRLYISGMGGSGVVADLIRDFSLTWNWEVEVIAVKDYFLKARDGLLIAVSYSGNTIETLYTVEYAKRRRIPAVAITTGGRLAQMGVPTVIVPKASAPRAALPQLLTAALHVVAKVYGIDVKIPEGLEPPNEALIHKLVEEFQKRPTIIAAESMRGVAYRVKNEFNENAKIEPSVEILPEAHHNWIEGSERAVVALTSPHIPKEHQERVKATVEIVGGSIYAVEMHPKGVLSFLRDVGIASVKLAEIRGVNPLATPRIDALKRRLQ | soluble
MNSENSFSSSEHITVLLHEAVNGLALKENGIYIDGTFGRGGHSRFILSQLSSNGRLIAVDRDPRAIAEAHKIQDLRFQIEHNSFSHIPEICDKLNLVGKIDGILLDLGVSSPQLDEAERGFSFMKDGPLDMRMDTTQGLSAEEWLKQVSIEDLTWVLKTFGEERFAKRIATAIVDFNKSAVKNGTEFLSRTSQLAELISQAVPFKDKHKHPATRSFQAIRIFINSELDELESLLNSALDMLAPEGRLSIISFHSLEDRMVKHFMKKQSKGEDIPKGLPLREDQIQRNQKLRIIGKAIQPSDAEIQANPRSRSAILRVAERILEHHHHHH | soluble
MTQRLQLTWYNKDKALIPTETGKYGYTWVDPSDPRYCETHTLIFDDYVQGAQTPKSDEFECSERADLQPQDDNLLILGESGDVLEALTRVPELAEKYVGKVKLVYIDPPFNTAQTFASYEDNLEHSIWLTMMRDRLIHMKKLLTNDGSIWVHLDDVEVHRMRVLMDEVFGADRFIATVAWEKDKGRRNDTDISGAHDLILIYAPSGRQWKNVRNLLPRLASQDARYQNPDNDPRGPWLQGDNGTAKSGTEKNRFPVTLPSGRVVTPKGRYWRFSPEGLAEARADGRVWFGKDGDSLPVIKRYLTDVQTGLVPRTWWNADEAGHNQEAKRDHLNKMFPEVENP | not soluble

# soluble on expression in E. coli (sequence: MGSDKIHHHHHHMNIHVKECGDLEAPLLVFLHGGGVSGWMWSNQVDYFHHYHCIVPDLPHHGLSGRETSFTILNSAEALIRLIEKKAQGRDVIVIGFSLGAQILLQMISINPRLITKAIVNSALVRPIPIPEKLLELSVKSTFPLIKSRWFSRLQAKTLYIDDDLFETYYRESCQMTQDSLTQILKENVSFRLPENVHEISTRILTTVGAKEKRIMKTSATMITHAHPNSTGIIIPSVGHGIPLAKPDQFNQLVDQWLKEERLPHDVGLIEK ) is not soluble

MKKEFSAGGVLFKDGEVLLIKTPSNVWSFPKGNIEPGEKPEETAVREVWEETGVKGEILDYIGEIHYWYTLKGERIFKTVKYYLMKYKEGEPRPSWEVKDAKFFPIKEAKKLLKYKGDKEIFEKALKLKEKFKL has a reported soluble on expression in E. coli of soluble

---

test: soluble on expression in E. coli; label from the status in PepcDB or PDB records
reported.endpoint: soluble on expression in E. coli

MCEQCGKCKCGECTAPRTLPSCLACNRQCLCSAESMVEYGTCMCLVKGIFYHCSNDDEGDSYSDNPCSCSQSHCCSRYLCMGAMSLFLPCLLCYPPAKGCLKLCRRCYDWIHRPGCRCKNSNTVYCKLESCPSRGQGKPSLEHHHHHH | not soluble
MRIFLDANVIADWILLKNKNQDASDPLLTERYRHMAESFKLVEEILKLKEKVSGTSQMAIAEVFGVIYDDAINMKLFREAVPASSWYWFSIRERKALSEDSQQLFLMEPHTSPQGI | not soluble
VDHLHIVGDVYDRGPYPDKIMDTLMNYHSLDFQWGNHDILWMGAASGSRVCAANVIRISARYLNLDILEDSYGISLRPLALFADEIYKNDPCTYFQPKNEDNLNYSKAEITQIARMHKAISIIQFKLEGEIINRRKEFDMNHRLLLQMIDYKKGTIHLKGKDYQLLDTHFPTIDPNDPYKLTKEEKELIEKITASFKNCRRLQKHVQFLYSKGSMFLTYNGNLLYHGCIPLYEDGTFMEMKLRGENFSGRELLEQFEILTREAYVRKPGTKEKKYACDIVWYLWTGAVSSLFGKSEMTTFERYFIAEKETHKEEKNPYYKLRNEETICKQILEEFGLDGECGHIINGHTPVKEGKGESPIKANTKMLVIDGGFAKAYHKETTLAGYTLLYNSY | not soluble
